test: Single dose PK in healthy subjects (Cohorts 1, 2, S1 and S2), plasma; assay type: in vivo, human; conditions: human, plasma, iv, 14 mg, 14 mg single IV infusion, healthy subjects; read-out: AUC24 Geo Mean
Quantity Measured: AUC (ng·h/mL)
Write down the numeric answer in ng·h/mL and omit the unit.

AUC for COC(=O)N1CCC[C@H](NS(C)(=O)=O)[C@@H]1CO[C@H]1CC[C@@H](c2ccccc2)CC1 ?
323

----------
experiment: Single dose PK in healthy subjects (Cohorts 1, 2, S1 and S2), plasma; assay type: in vivo, human; settings: human, plasma, intravenous, 7 mg; 1 hr; read-out: Plasma concentration, Q3
Quantity Measured: concentration at 1 h (ng/mL)
Write down the numeric answer in ng/mL and omit the unit.

concentration at 1 h for COC(=O)N1CCC[C@H](NS(C)(=O)=O)[C@@H]1CO[C@H]1CC[C@@H](c2ccccc2)CC1 ?
13.2

----------
test: Single dose PK in healthy subjects (Cohorts 1, 2, S1 and S2), plasma; assay type: in vivo, human; settings: human, plasma, intravenous, 180 mg; 1 hr; read-out: Plasma concentration, Mean
Quantity Measured: concentration at 1 h (ng/mL)
Write down the numeric answer in ng/mL and omit the unit.

concentration at 1 h for COC(=O)N1CCC[C@H](NS(C)(=O)=O)[C@@H]1CO[C@H]1CC[C@@H](c2ccccc2)CC1 ?
216

----------
test: Single dose PK in healthy subjects (Cohorts 1, 2, S1 and S2), plasma; assay type: in vivo, human; conditions: human, plasma, iv, 14 mg, 14 mg single IV infusion, healthy subjects; read-out: Ceoi Median
Quantity Measured: concentration at 9 h (ng/mL)
Write down the numeric answer in ng/mL and omit the unit.

concentration at 9 h for COC(=O)N1CCC[C@H](NS(C)(=O)=O)[C@@H]1CO[C@H]1CC[C@@H](c2ccccc2)CC1 [Compound A] ?
30.8

----------
experiment: Single dose PK in patients with narcolepsy (Cohorts 5, 6 and 7), plasma; type: in vivo, human; details: human, plasma, intravenous, 44.8 mg, Cmpd A 44.8 mg; Median; Cohort 5, 6, 7; read-out: Vz
Quantity Measured: Vd (L)
Write down the numeric answer in L and omit the unit.

Vd for COC(=O)N1CCC[C@H](NS(C)(=O)=O)[C@@H]1CO[C@H]1CC[C@@H](c2ccccc2)CC1 [Compound A] ?
282

----------
assay: Single dose PK in healthy subjects (Cohorts 1, 2, S1 and S2), plasma; assay type: in vivo, human; settings: human, plasma, intravenous, 180 mg; 0.5 hr; read-out: Plasma concentration, Q3
Quantity Measured: concentration at 0.5 hr (ng/mL)
Write down the numeric answer in ng/mL and omit the unit.

concentration at 0.5 hr for COC(=O)N1CCC[C@H](NS(C)(=O)=O)[C@@H]1CO[C@H]1CC[C@@H](c2ccccc2)CC1 [Compound A] ?
194

----------
test: Single dose PK in patients with narcolepsy (Cohorts 5, 6 and 7), plasma; format: in vivo, human; details: human, plasma, iv, 11.2 mg; 4 hr; NT1, single 9 h IV infusion; read-out: Plasma concentration, Mean
Quantity Measured: concentration at 4 h (ng/mL)
Write down the numeric answer in ng/mL and omit the unit.

concentration at 4 h for COC(=O)N1CCC[C@H](NS(C)(=O)=O)[C@@H]1CO[C@H]1CC[C@@H](c2ccccc2)CC1 [Compound A] ?
21.5
